Test system: K-562 leukemia
Assay: NCI-60 one-dose screen, 48 h
Settings: 10 µM unless noted
About 83,000 compounds went through this panel and 20% of them were active in at least one assay; those are over-represented in the sample as a whole. Active and inactive are the calls of the source. How the source made its calls: active means growth percent below 10; inactive means the rest.
Tick one outcome: True (active), False (inactive)

{"columns": ["compound", "class"],
 "data": [
  ["O=S(=O)(NCCCNc1nccc(-c2[nH]c(-c3ccccc3)nc2-c2ccc(Cl)c(O)c2)n1)c1cccc2ccccc12", "False"],
  ["COc1ccc2c(c1)c(CC(=O)[Se]CCC#N)c(C)n2C(=O)c1ccc(Cl)cc1", "False"],
  ["Fc1ccc(-c2cc3nc(C(Cl)Cl)nc(-c4ccc(F)cc4)n3n2)cc1", "False"]
]}

Please state the recorded outcome for this compound: COc1cc(Cn2cc3c(c2)-c2onc(CN4CCOCC4)c2CC3)cc(OC)c1OC False

Please state the recorded outcome for this compound: CC[C@]12C=CCN3CC[C@@]4(c5cc(NC(=O)COc6cc(O)c7c(=O)cc(-c8ccccc8)oc7c6)c(OC)cc5N(C)[C@H]4[C@@](O)(C(=O)OC)[C@@H]1OC(C)=O)[C@@H]32 True

Please state the recorded outcome for this compound: CC1=N[C@@H]2CN(C(=O)OC(C)(C)C)C[C@@H]2n2c1cc1ccccc1c2=O False

Please state the recorded outcome for this compound: COC(=O)C1(C)CCC[C@]2(C)[C@H]3C[C@H]4C(C(C)C)=C[C@]3(CC[C@@H]12)[C@H]1[C@@H]4[C@@H](OC(=O)c2ccco2)CC[C@@H]1OC(=O)c1ccco1 (stereo partly drawn) False

Please state the recorded outcome for this compound: C=CCn1c(SCC(=O)Nc2ccc(C(=O)/C=C/c3ccc(Cl)cc3)cc2)nnc1-c1c[nH]c2ccccc12 False

* * *

Assignment: determine reported growth for the given compounds.
System: NCI-H226 lung
Test: NCI-60 one-dose screen, 48 h (100 = growth as untreated, 0 = no growth, -100 = all killed)
Conditions: 10 µM unless noted
The panel holds about 83,000 compounds, 20% with a hit somewhere; the sample as a whole holds those more often.
Answers are plain numbers, in %.

For each entry beneath this line, provide reported growth.
1. Oc1[nH]c2ccccc2c1Nn1c(N=N/C=c2/ccc3c(c2)C=NN=3)n[nH]c1=S
2. O=S(=O)(Nc1cccc2ccccc12)c1ccc(-c2cnc(C3CC3)o2)cc1
3. Cc1cc(-c2ccc(Cl)cc2)n(Cc2nnc(SCC(=O)Nc3ccc(S(N)(=O)=O)cc3)n2C2CCCCC2)n1
4. COc1c(N2CC3CCCNC3C2)c(F)cc2c(=O)c(C(=O)N/N=C/c3ccccc3)cn(C3CC3)c12 (centres undefined)
5. O=C(Cn1cc(-c2ccccc2)nn1)Nc1nc(-c2ccc(Cl)cc2)cs1
6. C#CCNC1CCC(c2csc(C#C)n2)=C1C (centres undefined)
7. CNC(=O)c1cc(-n2ccc3cc(NC(=O)Nc4ccc(N5CCOCC5)c(C(F)(F)F)c4)ccc32)ccn1

1. 93.9
2. 64.6
3. 93.5
4. 103
5. 106
6. 75.4
7. 73.6

For each entry beneath this line, provide reported growth.
1. Clc1cccc(/C=N/Nc2nc(N/N=C/c3cccc(Cl)c3Cl)nc(N3CCCCC3)n2)c1Cl
2. C#Cc1ccc(C(=O)NCc2ccc(/C=C/C(=O)c3nccn3C)cc2)cc1

[97.5, 31.9]

All values here come from PubChem BioAssay (NCI).
